Target: T1, Human T cell receptor on human primary T cells (human, UniProt P01848 1-140; P01850 1-176)
T1 TCR alpha (looked up): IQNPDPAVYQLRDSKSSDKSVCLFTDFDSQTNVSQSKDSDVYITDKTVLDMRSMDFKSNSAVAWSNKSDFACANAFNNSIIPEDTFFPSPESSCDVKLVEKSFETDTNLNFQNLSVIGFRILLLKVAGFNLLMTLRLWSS
T1 TCR beta (looked up): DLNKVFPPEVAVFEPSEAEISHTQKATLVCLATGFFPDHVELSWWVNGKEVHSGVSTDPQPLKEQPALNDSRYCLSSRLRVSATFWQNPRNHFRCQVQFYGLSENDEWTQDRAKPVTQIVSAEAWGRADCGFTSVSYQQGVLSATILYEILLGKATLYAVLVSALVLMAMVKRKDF
Experiment: cell-based or functional assay
What % lysis, MOLM-13, Human T cell mediated killing was measured for each of the following?
Numbers only, in %.

Item: T017000633 (bispecific antibody) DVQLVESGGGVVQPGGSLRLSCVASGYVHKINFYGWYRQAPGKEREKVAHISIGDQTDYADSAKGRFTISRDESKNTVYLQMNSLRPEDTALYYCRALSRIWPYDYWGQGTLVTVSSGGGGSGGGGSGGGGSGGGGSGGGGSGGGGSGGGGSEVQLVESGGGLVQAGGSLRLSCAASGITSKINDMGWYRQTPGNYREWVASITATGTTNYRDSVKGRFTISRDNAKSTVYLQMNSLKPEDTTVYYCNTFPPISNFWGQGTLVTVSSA | % lysis, MOLM-13, Human T cell mediated killing: 26

Item: T017000128 (bispecific antibody) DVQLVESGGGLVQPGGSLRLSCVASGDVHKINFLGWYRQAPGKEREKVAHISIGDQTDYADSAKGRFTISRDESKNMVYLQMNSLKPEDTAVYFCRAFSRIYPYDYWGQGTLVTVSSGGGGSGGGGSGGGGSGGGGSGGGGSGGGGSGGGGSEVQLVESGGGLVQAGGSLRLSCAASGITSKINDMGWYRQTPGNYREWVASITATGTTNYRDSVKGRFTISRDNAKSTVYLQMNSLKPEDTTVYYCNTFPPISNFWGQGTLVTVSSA | % lysis, MOLM-13, Human T cell mediated killing: 24

Item: T017000634 (bispecific antibody, also called A0110056A10(E1D)-35GS-T0170056G05(L11V, D27Y, L34Y, M77T, K83R, V89L, F91Y, F95L, Y99W)-A) DVQLVESGGGLVQAGGSLRLSCAASGITSKINDMGWYRQTPGNYREWVASITATGTTNYRDSVKGRFTISRDNAKSTVYLQMNSLKPEDTTVYYCNTFPPISNFWGQGTLVTVSSGGGGSGGGGSGGGGSGGGGSGGGGSGGGGSGGGGSEVQLVESGGGVVQPGGSLRLSCVASGYVHKINFYGWYRQAPGKEREKVAHISIGDQTDYADSAKGRFTISRDESKNTVYLQMNSLRPEDTALYYCRALSRIWPYDYWGQGTLVTVSSA | % lysis, MOLM-13, Human T cell mediated killing: 22

Turning now to a further record.
Item: T017000131 (bispecific antibody, also called A0110056A10(E1D)-35GS-T0170056G05-A) DVQLVESGGGLVQAGGSLRLSCAASGITSKINDMGWYRQTPGNYREWVASITATGTTNYRDSVKGRFTISRDNAKSTVYLQMNSLKPEDTTVYYCNTFPPISNFWGQGTLVTVSSGGGGSGGGGSGGGGSGGGGSGGGGSGGGGSGGGGSEVQLVESGGGLVQPGGSLRLSCVASGDVHKINFLGWYRQAPGKEREKVAHISIGDQTDYADSAKGRFTISRDESKNMVYLQMNSLKPEDTAVYFCRAFSRIYPYDYWGQGTLVTVSSA | % lysis, MOLM-13, Human T cell mediated killing: 20
